- testTarget: HLA-A*02:01 (Homo sapiens, UniProt P04439, D140Y/D185E/D98H/E176V/E277Q/G131W/G231S/I119V/I121R/I166T/I218V/L300P/L318F/N151K/N90K/P208A/P217A/Q86G/Q94H/R138H/R169H/T345S)
- procedureDetails: MHC binding assay (UV-ligand exchange, ELISA of stabilized MHC complexes)
- conditionInfo: MHC class I binding score; binding to HLA-A*02:01 ranged by peptide exchange yield (UV-ligand exchange, ELISA)
measuredAttribute: Peptide exchange

substance: 362 (TLYGLSVLL; listed as Homo sapiens) [compound 362]
Peptide exchange: ″+++″ (≥50% = +++)
//
substance: 397 (YLFGERLLEC; listed as Homo sapiens) [compound 397]
Peptide exchange: ″+++″ (≥50% = +++)
//
substance: 578 (FLDPGGPMMKL; listed as Homo sapiens) [compound 578]
Peptide exchange: ″+++″ (≥50% = +++)
//
substance: 280 (VLPDPEVLEAV; listed as Homo sapiens) [compound 280]
Peptide exchange: ″+++″ (≥50% = +++)

Please supply Peptide exchange for each of the following items, keeping them in order.
1. 10 (FLATFPLAAV; listed as Homo sapiens) [compound 10]
2. 339 (GLWEIENNPTVKA; listed as Homo sapiens) [compound 339]
3. 320 (KMFEFVEPLL; listed as Homo sapiens) [compound 320]
4. 567 (SLLPLDDIVRV; listed as Homo sapiens) [compound 567]

″++++″ (≥75% = ++++)
″++++″ (≥75% = ++++)
″++++″ (≥75% = ++++)
″+++″ (≥50% = +++)

Please supply Peptide exchange for each of the following items, keeping them in order.
1. 599 (YLLNDASLISV; listed as Homo sapiens) [compound 599]
2. 3 (SLASKLTTL; listed as Homo sapiens) [compound 3]
3. 514 (ILVDWLVQV; listed as Homo sapiens) [compound 514]

["″+++″ (≥50% = +++)", "″++++″ (≥75% = ++++)", "″+++″ (≥50% = +++)"]

---

- testTarget: HLA-A*02:01 (Homo sapiens, UniProt P04439, D140Y/D185E/D98H/E176V/E277Q/G131W/G231S/I119V/I121R/I166T/I218V/L300P/L318F/N151K/N90K/P208A/P217A/Q86G/Q94H/R138H/R169H/T345S)
- procedureDetails: MHC binding assay (UV-ligand exchange, ELISA of stabilized MHC complexes)
- conditionInfo: MHC class I binding score; binding to HLA-A*02:01 ranged by peptide exchange yield (UV-ligand exchange, ELISA)
measuredAttribute: Peptide exchange

substance: 563 (WLLPYNGVTV; listed as Homo sapiens) [compound 563]
Peptide exchange: ″+++″ (≥50% = +++)
--
substance: 609 (ALWKQLLEL; listed as Homo sapiens) [compound 609]
Peptide exchange: ″+++″ (≥50% = +++)
--
substance: 154 (ALDDGTPAL; listed as Homo sapiens) [compound 154]
Peptide exchange: ″++″ (≥20% = ++)
--
substance: 554 (LLMPSSEDLLL; listed as Homo sapiens) [compound 554]
Peptide exchange: ″+++″ (≥50% = +++)
--
substance: 579 (NLMEMVAQL; listed as Homo sapiens) [compound 579]
Peptide exchange: ″++″ (≥20% = ++)
--
substance: 134 (YLQELIFSV; listed as Homo sapiens) [compound 134]
Peptide exchange: ″+++″ (≥50% = +++)
--
substance: 474 (YLDPALELGPRNV; listed as Homo sapiens) [compound 474]
Peptide exchange: ″+++″ (≥50% = +++)
--
substance: 72 (SLLELDGINL; listed as Homo sapiens) [compound 72]
Peptide exchange: ″+++″ (≥50% = +++)
--
substance: 182 (MLLEAPGIFL; listed as Homo sapiens) [compound 182]
Peptide exchange: ″+++″ (≥50% = +++)
--
substance: 46 (ILTEENIHL; listed as Homo sapiens) [compound 46]
Peptide exchange: ″+++″ (≥50% = +++)

Please supply Peptide exchange for each of the following items, keeping them in order.
1. 359 (YLLPESVDL; listed as Homo sapiens) [compound 359]
2. 297 (VLADIELAQA; listed as Homo sapiens) [compound 297]
3. 171 (LLLPLQILL; listed as Homo sapiens) [compound 171]
4. 481 (GLIEDYEALL; listed as Homo sapiens) [compound 481]
5. 468 (YLRSVGDGETV; listed as Homo sapiens) [compound 468]
6. 524 (ALIENLTHQI; listed as Homo sapiens) [compound 524]
7. 147 (SLLEAVSFL; listed as Homo sapiens) [compound 147]

″+++″ (≥50% = +++)
″+++″ (≥50% = +++)
″+++″ (≥50% = +++)
″+++″ (≥50% = +++)
″+++″ (≥50% = +++)
″++″ (≥20% = ++)
″+++″ (≥50% = +++)

Please supply Peptide exchange for each of the following items, keeping them in order.
1. 331 (KVDTVWVNV; listed as Homo sapiens) [compound 331]
2. 215 (QLINHLHAV; listed as Homo sapiens) [compound 215]
3. 113 (GLLPTPLFGV; listed as Homo sapiens) [compound 113]
4. 364 (LLQNEQFEL; listed as Homo sapiens) [compound 364]
5. 236 (GLLEAKVSL; listed as Homo sapiens) [compound 236]
6. 179 (KVLNELYTV; listed as Homo sapiens) [compound 179]
7. 613 (RLLPPGAVVAV; listed as Homo sapiens) [compound 613]
8. 140 (YMDAPKAAL; listed as Homo sapiens) [compound 140]

″+++″ (≥50% = +++)
″+++″ (≥50% = +++)
″+++″ (≥50% = +++)
″+++″ (≥50% = +++)
″+++″ (≥50% = +++)
″+++″ (≥50% = +++)
″+++″ (≥50% = +++)
″++″ (≥20% = ++)

Please supply Peptide exchange for each of the following items, keeping them in order.
1. 271 (LVYPLELYPA; listed as Homo sapiens) [compound 271]
2. 366 (RLLDMGETDLML; listed as Homo sapiens) [compound 366]
3. 429 (GLVNDLARV; listed as Homo sapiens) [compound 429]
4. 456 (LLIGHLERV; listed as Homo sapiens) [compound 456]
5. 537 (TLAPGEVLRSV; listed as Homo sapiens) [compound 537]
6. 527 (FLLEPGNLEV; listed as Homo sapiens) [compound 527]

["″+++″ (≥50% = +++)", "″+++″ (≥50% = +++)", "″++″ (≥20% = ++)", "″+++″ (≥50% = +++)", "″+++″ (≥50% = +++)", "″++++″ (≥75% = ++++)"]

Please supply Peptide exchange for each of the following items, keeping them in order.
1. 409 (LLDAMNYHL; listed as Homo sapiens) [compound 409]
2. 519 (GLLHLTLLL; listed as Homo sapiens) [compound 519]
3. 211 (LLWPGAALL; listed as Homo sapiens) [compound 211]
4. 196 (YLYSVEIKL; listed as Homo sapiens) [compound 196]
5. 316 (ILLERLWYV; listed as Homo sapiens) [compound 316]
6. 390 (ALFMKQIYL; listed as Homo sapiens) [compound 390]

″++″ (≥20% = ++)
″+++″ (≥50% = +++)
″++″ (≥20% = ++)
″++++″ (≥75% = ++++)
″+++″ (≥50% = +++)
″+++″ (≥50% = +++)

Which Peptide exchange is reported for this substance? 265 (LLFGGTKTV; listed as Homo sapiens) [compound 265]
″++″ (≥20% = ++)
